I'd appreciate it if you could supply Growth Rate values for the items below.
- Test system: HEK-293T
- Test summary: Incucyte cell viability with HEK293T; further: unitless GR value; below 1 slowed growth and below 0 cell loss
- Format: toxicity, cell-based
- Measurement context: human, 0 h, 10 µM, compound concentration 10 uM, replicate number 1
I'd appreciate a reply containing only the number, no unit.

Fill in: Growth Rate of COc1cc2c(cc1CC=C(C)C)C(=O)C[C@@H](c1ccc(O)cc1)O2 [BAVACHININ A] is ___
-0.07

For CC(C)[C@H](C(=O)Nc1ccc(C(=O)NO)cc1)c1ccccc1 [AR-42] then?
-0.15

Now the same for NC(=O)c1ccc2[nH]c(-c3ccc(Oc4ccc(Cl)cc4)cc3)nc2c1
0.58

Proceed to Cc1ccc(C(=O)Nc2cc(N3CCN(C)CC3)cc(C(F)(F)F)c2)cc1-n1cc(-c2cnn(C)c2C)nn1.Cl
-0.85

Would you kindly repeat that for CN1CC(=O)N(C)c2cnc(Nc3ccc(NC(=O)Nc4cccc(C(=O)O)c4)cc3)nc21 ?
-1

Do the same for COc1cc(C(N)=O)ccc1Nc1ncc2c(n1)N(CCC(C)C)[C@H](C)C(=O)N2C please
-0.98

Let us now turn to COc1cc2ncnc(N[C@H](C)c3ccccc3)c2cc1OC1CCN(S(C)(=O)=O)CC1.Cl
0.37

What about this compound? COc1ccc(Br)cc1S(=O)(=O)NC(=O)/C=C/c1cc(Cl)ccc1Cc1ccc2ccccc2c1
0.03

Same again, this time with O=C(Cc1ccccc1[N+](=O)[O-])Nc1ccc(-c2ccc(C(O)(C(F)(F)F)C(F)(F)F)cc2F)cc1
0.09

----------
- Test system: HEK-293T
- Test summary: Incucyte cell viability with HEK293T; further: unitless GR value; below 1 slowed growth and below 0 cell loss
- Format: toxicity, cell-based
- Measurement context: human, 24 h, 10 µM, compound concentration 10 uM, replicate number 2
Measured endpoint: Growth Rate

Please look up its Growth Rate: CCn1cnc2c(-c3ccc(F)c(-c4ccc(S(=O)(=O)CC)cc4OC)c3)cnnc21
-0.18

Also CC(C)(O)[C@H](F)CN1Cc2cc(NC(=O)c3cnn4cccnc34)c(N3CCOCC3)cc2C1=O , if possible.
0.85

Also check CN[C@@H]1CC[C@@H](c2ccc(Cl)c(Cl)c2)c2ccccc21.Cl
0.07

----------
Provide the recorded Growth Rate for the entries that follow.
- Test system: U2OS
- Test summary: Incucyte cell viability with U2OS; further: unitless GR value; below 1 slowed growth and below 0 cell loss
- Format: toxicity, cell-based
- Measurement context: human, 12 h, 10 µM, compound concentration 10 uM, replicate number 2
The response must contain the number and no unit.

API: value(readout= Growth Rate, system= U2OS, query= CC(=O)c1c(C)c2cnc(Nc3ccc(N4CCN(CCOCCOCCOCCNC(=O)COc5cccc6c5C(=O)N(C5CCC(=O)NC5=O)C6=O)CC4)cn3)nc2n(C2CCCC2)c1=O (stereo not drawn) )
0.93

Further, for COCCCS(=O)(=O)c1cc(C)c(-c2ccc(F)c3c2CC[C@H]3Oc2ccc3c(c2)OC[C@H]3CC(=O)O)c(C)c1 ?
0.95

Cool, now Cn1c(C2(NC(=O)c3ccc4c(C5CCCC5)c(-c5ncc(Br)cn5)n(C)c4c3)CCC2)nc2ccc(/C=C/C(=O)O)cc21
0.92

Same lookup for CN(C)C/C=C/C(=O)Nc1cccc(S(=O)(=O)N2CCC(NC(=O)c3n[nH]cc3NC(=O)c3c(Cl)cc(Cl)cc3Cl)CC2)c1 , please.
-0.3

Item: CCN1CCN(Cc2ccc(C(=O)Nc3ccc(C)c(Oc4ccc5c(c4)CC(=O)N5)c3)cc2C(F)(F)F)CC1.Cl.Cl
-0.14

Note, next up: CCOc1ccc(S(=O)(=O)Nc2ccc(Cl)cc2C#Cc2cnc(C(=O)[O-])cc2OC)c2ncccc12.[K+]
-0.91

Here is the next compound: CCn1c(-c2nonc2N)nc2c(C#CC(C)(C)O)ncc(OCC3CCCNC3)c21 (stereo not drawn)
0.86

Moving on to the next compound: COP(=O)(CCC(N)C(=O)O)Oc1cccc(CC(=O)O)c1 (stereo not drawn)
0.91

Same thing, different compound: CC(C)c1nc2c(c3c1[C@H](c1ccc(C(F)(F)F)cc1)OC31CCOCC1)[C@H](O)CC(C)(C)C2
0.84

Also need O=C(N[C@H]1CCCCC/C=C\C2C[C@@]2(C(=O)O)NC(=O)[C@@H]2C[C@@H](Oc3ccncc3)CN2C1=O)OC1CCCC1 (stereo partly drawn) , thanks.
0.99

COc1ccc(-n2nc(C(F)(F)F)cc2-c2ccc(Cl)cc2)cc1 ?
0.86

Continue with Cc1ccc(S(=O)(=O)O)cc1.Cn1cc(Nc2nccc(N3CC4CCC(C3)N4C(=O)[C@@H]3CC3(F)F)n2)cn1
0.96

Input O=C1CCCN1CCNc1nc(Nc2ccc(Cl)c(Cl)c2)ncc1C(F)(F)F
-0.25

Record: Cc1[nH]nc(C(F)(F)F)c1Cc1sc2c(c1C(=O)N1C[C@](C)(O)CO1)c(=O)n(C)c(=O)n2C(C)C
0.71

Same question for O=c1cccc2n1C[C@@H]1CNC[C@H]2C1 please.
0.94

For C[C@H](NC(=O)c1cc(Cl)ccc1Oc1ccc(F)cc1)c1ccc(C(=O)O)cc1 then?
0.8

Ok, now Nc1ncnc2c1ccn2[C@@H]1O[C@H]([C@@H](O)c2ccccc2)[C@@H](O)[C@H]1O
1

What about COc1cc(C(C)C)c(Oc2cnc(NC(CO)CO)nc2N)cc1I ?
1

Input CCc1cc2c(cc1-c1cccc(S(=O)(=O)F)c1)C(C)(C)c1[nH]c3cc(C#N)ccc3c1C2=O
0.66

Continue with Cc1ccc(C)c(OCCCC(C)(C)C(=O)O[C@@H]2O[C@H](C(=O)O)[C@@H](O)[C@H](O)[C@H]2O)c1
0.99

O=C(O)CCCCN(CCc1cc(F)ccc1OCc1ccc(-c2ccc(C(F)(F)F)cc2)cc1)Cc1ccc(C(=O)O)cc1 , same question.
0.87

Please answer likewise for O=S(=O)(Nc1nnc2cc(OCC34CC5CC(CC(C5)C3)C4)c(C3CC3)cn12)C1CC1
0.76

Similarly, Cc1cc(-c2cnc(N)c3c(-c4ccc5scnc5c4)csc23)n(C)n1 ?
-0.33

Can you handle Nc1c(CC(=O)O)cccc1C(=O)c1ccc(Br)cc1 next?
0.95

What do you get for COc1cc(C)c(S(=O)(=O)N(C)CCOCC(=O)N(C)[C@H]2CCC[C@@H](N3CCN(C)CC3)C2)c(C)c1.O=C(O)C(O)C(O)C(=O)O ?
0.86

Repeat for the following compound: CCN1C(=CC(C)=O)Sc2ccc(OC)cc21
0.9

Consider next the compound CN(C(=O)c1ccccc1)c1ccc2c(c1)nc(NC(=O)c1ccc(Br)s1)n2CCC(N)=O in the same way.
0.72

Here is the next compound: Cc1cc(Nc2ncc(Cl)c(Nc3ccccc3S(=O)(=O)C(C)C)n2)c(OC(C)C)cc1C1CCNCC1
-0.82

Then this compound: COc1cc([N+](=O)[O-])ccc1NC(=O)c1ccccc1O
0.63

CC(C)(c1ccc(OCc2cccc(COc3ccc(C(=N)N)cc3)c2)cc1)c1ccc(O[C@@H]2O[C@H](C(=O)O)[C@@H](O)[C@H](O)[C@H]2O)cc1.O=C(O)C(F)(F)F ?
0.68

Also, Cc1cn([C@@H](C)CC#N)c(=O)c2cc(Cn3nc(C(F)F)cc3Cl)nn12 please.
0.71

Field entry: CN(C1CCc2c(c3ccccc3n2CC(=O)O)C1)S(=O)(=O)c1ccc(F)cc1 (stereo not drawn)
0.9

And for COc1ccc(N(C(=O)Nc2c(C)cccc2C)c2cc(Nc3ccc(N4CCN(C)CC4)cc3)ncn2)c(OC)c1 ?
0.57

----------
- Test system: HEK-293T
- Test summary: Incucyte cell viability with HEK293T; further: unitless GR value; below 1 slowed growth and below 0 cell loss
- Type: toxicity, cell-based
- Measurement context: human, 0 h, 10 µM, compound concentration 10 uM, replicate number 1
// assign 1 if Growth Rate falls strictly below -0.4, else 0 (ties count as 0)

is_below(Growth Rate, -0.4) for CC(=O)O.Cc1cc2c(ncn2C2(C)CN(C(=O)c3ccn(CC4CCN([C@H]5C=CCCCC5)CC4)c3)C2)c(N)n1 ?
1

Now this one: O=C1N=C(NCc2cccs2)S/C1=C\c1ccc2ncccc2c1
0

Same for CC(C)[C@@H]1CC[C@@H](C)C[C@@H]1P(=O)(c1ccccc1)c1ccccc1
0

Next entry: CCN1C(=O)N(c2c(F)c(OC)cc(OC)c2F)Cc2cnc3[nH]c(CN4CCOCC4)cc3c21 [PEMIGATINIB]
0

# iterate: CSc1ccc(C(=O)/C=C/c2cc(C)c(OC(C)(C)C(=O)O)c(C)c2)cc1 [ELAFIBRANOR]
0

One more compound: O=C1Nc2nc(-c3c(O)cccc3OCC3CC3)cc([C@@H]3CCCNC3)c2CO1
0

Same for CN(C)C(=O)Cn1cc(-c2nc(C3(c4ccc(-c5cnc(N)nc5)cc4)CC3)no2)cn1 [BI 0153]
0

Same question, Cc1ncsc1-c1ccc(CNC(=O)[C@@H]2C[C@H](O)CN2C(=O)[C@@H](NC(=O)C2(F)CC2)C(C)(C)C)c(OCCOc2ccc(CN3CCN(c4cc(-c5ccccc5O)nnc4N)CC3)cc2)c1 this time
0

Field entry: Cn1c(C2(NC(=O)c3ccc4c(C5CCCC5)c(-c5ncc(Br)cn5)n(C)c4c3)CCC2)nc2ccc(/C=C/C(=O)[O-])cc21.[Na+] [DELEOBUVIR SODIUM]
0

Proceed to O=C(NS(=O)(=O)N1CCC1)c1cc(C2CC2)c(OCC23CC4CC(CC(C4)C2)C3)cc1F
0

# repeat for CNc1ncc2cc(-c3ccc(-c4ncccc4F)cc3Cl)c(=O)n(C[C@H]3OC[C@H](N)CO3)c2n1
1

Okay, and C[C@@H](COCCC(=O)N1CCN(c2ncc(C(F)(F)F)cn2)CC1)Nc1cn[nH]c(=O)c1C(F)(F)F [ATAMPARIB] ?
0

Can you handle CC(C)(C)NC(=O)c1cncn1C1CCN(c2ccc(-c3nnc(C(F)(F)F)o3)cn2)CC1 next?
1

Thanks! And COc1cc(C(=O)NCCOCCOCCOCC(=O)N[C@H](C(=O)N2C[C@@H](O)C[C@H]2C(=O)NCc2ccc(-c3scnc3C)cc2)C(C)(C)C)ccc1Nc1ncc(C(F)(F)F)c(Oc2cccc3c2C(=O)CC3)n1 ?
1

Same again, this time with Cc1nnc2n1-c1sc3c(c1C(c1ccccc1Cl)=NC2)C[C@H](C(=O)N1CCOCC1)C3
0
